B1: TPR t1 (parent)
chain: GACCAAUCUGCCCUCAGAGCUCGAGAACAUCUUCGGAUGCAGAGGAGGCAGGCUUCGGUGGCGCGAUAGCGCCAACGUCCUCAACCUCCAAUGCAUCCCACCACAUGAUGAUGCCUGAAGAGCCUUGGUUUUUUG

- Variants of: B1
- protocol-details: polymerase ribozyme fitness, log enrichment relative to wild type (log ratio); higher = more active; in vitro selection for triplet polymerase activity
assay-readout: polymerase ribozyme fitness (log ratio)
Write the value as a bare number.

Answered cases to consult:
A18U A27G C72A C115A G120C    -3.08
C79A U81C G120U G135C    -2.91
G52U U106G    -3.09
C13A U130A    -2.56
A18C C115U    -2.17
G47A U55A G60C A90U U92A    -4
G39C G47C    -3.08
A43G C73G A75C U112A    -3.33

Ask: Any idea what its polymerase ribozyme fitness (log ratio) is? The variant is C4A C86A
Result: -2.74

Ask: Any idea what its polymerase ribozyme fitness (log ratio) is? The variant is A6G G44C U112C
Result: 0.311

Ask: Any idea what its polymerase ribozyme fitness (log ratio) is? The variant is A6C C40A C53G C99U U109A U112G
Result: -5.56

Ask: Any idea what its polymerase ribozyme fitness (log ratio) is? The variant is G10C U78C U106A U109G
Result: -4.27

Ask: Any idea what its polymerase ribozyme fitness (log ratio) is? The variant is C80U U112A
Result: 0.959

Ask: Any idea what its polymerase ribozyme fitness (log ratio) is? The variant is A6C A26U C62U
Result: -2.91

Ask: Any idea what its polymerase ribozyme fitness (log ratio) is? The variant is C56U G122A
Result: -0.36

Ask: Any idea what its polymerase ribozyme fitness (log ratio) is? The variant is G10U C72U C80U
Result: -0.683

Ask: Any idea what its polymerase ribozyme fitness (log ratio) is? The variant is A75G U129C
Result: -0.465

Ask: Any idea what its polymerase ribozyme fitness (log ratio) is? The variant is C8U C34U
Result: -3.66

Ask: Any idea what its polymerase ribozyme fitness (log ratio) is? The variant is C13G C40G
Result: -0.654

Ask: Any idea what its polymerase ribozyme fitness (log ratio) is? The variant is C79U C88U
Result: -0.115

Ask: Any idea what its polymerase ribozyme fitness (log ratio) is? The variant is U78C U92A
Result: -3.1

Ask: Any idea what its polymerase ribozyme fitness (log ratio) is? The variant is U33C G39U
Result: -5.33

Ask: Any idea what its polymerase ribozyme fitness (log ratio) is? The variant is U14A A50G
Result: -2.52

Ask: Any idea what its polymerase ribozyme fitness (log ratio) is? The variant is G42A G45U C85A A111U
Result: -5.93

Ask: Any idea what its polymerase ribozyme fitness (log ratio) is? The variant is G44U C72U A121U
Result: 0.777

Ask: Any idea what its polymerase ribozyme fitness (log ratio) is? The variant is C8G U54G
Result: 0.644

Ask: Any idea what its polymerase ribozyme fitness (log ratio) is? The variant is C8U A26U
Result: -2.13

Ask: Any idea what its polymerase ribozyme fitness (log ratio) is? The variant is C49U C73A C114U
Result: -2.58

Ask: Any idea what its polymerase ribozyme fitness (log ratio) is? The variant is U14C U54G
Result: -1.76

Ask: Any idea what its polymerase ribozyme fitness (log ratio) is? The variant is A37U C73G U130G
Result: -1.38

Ask: Any idea what its polymerase ribozyme fitness (log ratio) is? The variant is C12A G42C C73A C80U A118G
Result: -3.44

Ask: Any idea what its polymerase ribozyme fitness (log ratio) is? The variant is C12G C56U
Result: -0.0119
